These entries and their values trace back to paper PMC5540273.

Tested on: STK35
Conditions: concentration: 1 μM,replicates: in singlicate; n = 1;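 further: KINOMEscan kinase panel screen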
Documented %Inh across a set of compounds

{"COMPOUND_STRUCTURE": "CNC(=O)c1ccccc1Sc1ccc2c(/C=C/c3ccccn3)n[nH]c2c1", "EXPERIMENTAL_SYSTEM": "STK35", "%Inh": "25%"}
{"COMPOUND_STRUCTURE": "CC(C)N1C(=O)Cc2cc(Nc3ncc(C(F)(F)F)c(NCc4cccc(S(C)(=O)=O)c4)n3)ccc21", "EXPERIMENTAL_SYSTEM": "STK35", "%Inh": "4%"}

# %Inh (compound: `CCN(CC)CCOc1ccc(Nc2ncc3cc(-c4c(Cl)cccc4Cl)c(=O)n(C)c3n2)cc1` ) is 98.8%

The compound listed as `CCn1c(-c2nonc2N)nc2c(C#CC(C)(C)O)nc(OCCN)cc21.Cl.Cl` has a reported %Inh of 0%

Data point: `Cc1ccc(-n2nc(C(C)(C)C)cc2NC(=O)Nc2ccc(OCCN3CCOCC3)c3ccccc23)cc1` ; %Inh = 0%

====

Test system: MAP3K1
Conditions: concentration: 1 μM,replicates: in singlicate; n = 1
QUANTITY: %Inh
Note: a bare number is incomplete; add the unit.

Record excerpt, results attached:
{"COMPOUND": "CC(C)Nc1cc(-c2ccc3c(N)n[nH]c3c2)nc(N)n1 [GSK2221681]", "%Inh": "0%"}
{"COMPOUND": "Cc1n[nH]c2ccc(-c3cc(OC[C@@H](N)Cc4ccccc4)cnc3-c3ccoc3)cc12.O=C(O)C(F)(F)F.O=C(O)C(F)(F)F [GSK507358]", "%Inh": "6%"}
{"COMPOUND": "NC(=O)c1cc(-c2ccccc2)cc2c(C3CCNCC3)c[nH]c12 [GSK301362]", "%Inh": "18%"}

compound CN(C)CCOc1ccc(-c2cc(-c3c[nH]nc3-c3ccccn3)ccn2)cc1 [GW835314] , %Inh observed: 24%

Summary for this compound, Cl.Cl.NC[C@H](CC1CCCCC1)NC(=O)c1cc(Br)c(-c2ccnc3[nH]ccc23)s1 [GSK1581427] : %Inh is 14%

Measured %Inh, Nc1nc(Nc2ccccc2)cc(-c2ccc3c(N)n[nH]c3c2)n1 [GSK2225749] : 10%

====

Tested on: PIP5K1C
Details: concentration: 1 μM,replicates: in singlicate; n = 1
QUANTITY: %Inh

{"COMPOUND_STRUCTURE": "C=CC(=O)Nc1cc2c(Nc3ccc(F)c(Cl)c3)ncnc2cc1OCCCN1CCOCC1", "%Inh": "0%"}
{"COMPOUND_STRUCTURE": "Nc1nc(Nc2ccccc2)cc(-c2ccc3c(N)n[nH]c3c2)n1", "%Inh": "82%"}

Record summary for `Cl.Oc1cc(-c2nc(-c3ccccc3)[nH]c2-c2ccncc2)ccc1Cl` : reported %Inh = 0%

Kindly note the recorded %Inh for `COc1ccc(C[C@@H](CN)NC(=O)c2cc(Br)c(-c3ccnc4[nH]ccc34)s2)cc1.Cl.Cl` , which is 30%

====

Tested on: FGFR3
Settings: concentration: 1 μM,replicates: in singlicate; n = 1
Response key: rule met means %Inh >= 20%; rule not met means %Inh < 20%.

// below: answered molecules
{"MOLECULE": "C[C@H]1Oc2cc(cnc2N)-c2c(nn(C)c2C#N)CN(C)C(=O)c2ccc(F)cc21", "CAT": "rule not met"}
{"MOLECULE": "Cl.Oc1cc(-c2nc(-c3ccccc3)[nH]c2-c2ccncc2)ccc1Cl [SB-386023]", "CAT": "rule not met"}
{"MOLECULE": "CCN(CC)CCOc1ccc(Nc2ncc3cc(-c4c(Cl)cccc4Cl)c(=O)n(C)c3n2)cc1 [SB-601273]", "CAT": "rule met"}
{"MOLECULE": "Nc1nc(Nc2ccccc2)cc(-c2ccc3c(N)n[nH]c3c2)n1 [GSK2225749]", "CAT": "rule not met"}
{"MOLECULE": "C=CC(=O)Nc1cc2c(Nc3ccc(F)c(Cl)c3)ncnc2cc1OCCCN1CCOCC1 [GW781483]", "CAT": "rule not met"}
{"MOLECULE": "Cc1cc2cn[nH]c2cc1-c1cccc2c(N)c(C(N)=O)nnc12", "CAT": "rule not met"}
{"MOLECULE": "Cc1cc(C(=O)Nc2ccc(Oc3ccc4nc(NC(=O)C5CC5)cn4n3)cc2)nn1-c1ccccc1", "CAT": "rule not met"}
{"MOLECULE": "Cc1ccc2c(-c3ccncc3)c(-c3ccc(F)cc3)nn2c1.Cl [GW461484]", "CAT": "rule not met"}
{"MOLECULE": "NC(=O)c1cc(-c2ccccc2)cc2c(C3CCNCC3)c[nH]c12 [GSK301362]", "CAT": "rule not met"}
{"MOLECULE": "CN(C)CC(O)COc1ccc(Nc2nccc(-c3cnn4nc(N5CCOCC5)ccc34)n2)cc1 (centres unmarked) [GW767488]", "CAT": "rule not met"}

IN: %Inh >= 20% for `O=C(NCCCN1CCOC1=O)c1cnc(NCc2cc(Cl)ccc2Cl)nc1NC1CCCC1` ?
OUT: rule not met

IN: Determine whether measured %Inh meets or exceeds 20% for `C[C@@H](Oc1cc(-c2cnn(C3CCNCC3)c2)cnc1N)c1c(Cl)ccc(F)c1Cl`
OUT: rule met

IN: Form field: %Inh at least 20%? Entry: CN(C)CCOc1ccc(-c2cc(-c3c[nH]nc3-c3ccccn3)ccn2)cc1 [GW835314]
OUT: rule met

IN: # bool: %Inh of COc1ccc(C[C@@H](CN)NC(=O)c2cc(Br)c(-c3ccnc4[nH]ccc34)s2)cc1.Cl.Cl [GSK1389063] >= 20%
OUT: rule met

====

%Inh reference
System: TRKA
Construct: gene NTRK1
Settings: concentration: 1 μM,replicates: in singlicate; n = 1
Please state the figure in %; there is no need to write the unit.

Take a look at these entries with their results.
{"MOLECULE": "CCN(CC)CCCCNc1ncc2cc(-c3c(Cl)cccc3Cl)c(NC(=O)NC(C)(C)C)nc2n1", "%Inh (%)": 90}
{"MOLECULE": "Cc1cc2cn[nH]c2cc1-c1cccc2c(N)c(C(N)=O)nnc12", "%Inh (%)": 51}
{"MOLECULE": "Cl.Cl.Nc1nc(-c2ccc3c(N)n[nH]c3c2)cc(N2CCCC(NC(=O)c3ccccc3)C2)n1 (stereo not shown) [GSK2286775]", "%Inh (%)": 0}
{"MOLECULE": "CN(C)CCOc1ccc(-c2cc(-c3c[nH]nc3-c3ccccn3)ccn2)cc1 [GW835314]", "%Inh (%)": 0}

Simply: `C[C@H]1Oc2cc(cnc2N)-c2c(nn(C)c2C#N)CN(C)C(=O)c2ccc(F)cc21` , TRKA, %Inh = 97.7

Kindly note: TRKA, `C[C@@H]1CCN(C(=O)CC#N)C[C@@H]1N(C)c1ncnc2[nH]ccc12` , %Inh value reported: 0

# %Inh measured on TRKA for item CC(C)Nc1cc(-c2ccc3c(N)n[nH]c3c2)nc(N)n1 [GSK2221681] = 0

Item: CCn1c(-c2nonc2N)nc2c(C#CC(C)(C)O)nc(OCCN)cc21.Cl.Cl [GSK902056] | System: TRKA | %Inh: 0

%Inh of Cc1n[nH]c2ccc(-c3cc(OC[C@@H](N)Cc4ccccc4)cnc3-c3ccoc3)cc12.O=C(O)C(F)(F)F.O=C(O)C(F)(F)F [GSK507358] , assay on TRKA, is 0

Reported TRKA %Inh for item `CNC(=O)c1ccccc1Sc1ccc2c(/C=C/c3ccccn3)n[nH]c2c1` was 77

====

System: EPHB4
Conditions: concentration: 1 μM,replicates: in singlicate; n = 1
param class (str): category from %Inh; see ranges bottom end (below 1%), midrange (1% to below 20%), top end (20% or more)

{"COMPOUND": "CC(C)N1C(=O)Cc2cc(Nc3ncc(C(F)(F)F)c(NCc4cccc(S(C)(=O)=O)c4)n3)ccc21", "CAT": "bottom end"}
{"COMPOUND": "Cc1n[nH]c2ccc(-c3cc(OC[C@@H](N)Cc4ccccc4)cnc3-c3ccoc3)cc12.O=C(O)C(F)(F)F.O=C(O)C(F)(F)F", "CAT": "midrange"}
{"COMPOUND": "CNC(=O)c1ccccc1Sc1ccc2c(/C=C/c3ccccn3)n[nH]c2c1", "CAT": "bottom end"}
{"COMPOUND": "O=C(NCCCN1CCOC1=O)c1cnc(NCc2cc(Cl)ccc2Cl)nc1NC1CCCC1", "CAT": "midrange"}
{"COMPOUND": "Cc1cc2cn[nH]c2cc1-c1cccc2c(N)c(C(N)=O)nnc12", "CAT": "bottom end"}

IN: Tag the class for `COc1ccc(C[C@@H](CN)NC(=O)c2cc(Br)c(-c3ccnc4[nH]ccc34)s2)cc1.Cl.Cl`
OUT: top end

IN: Record `C=CC(=O)Nc1cc2c(Nc3ccc(F)c(Cl)c3)ncnc2cc1OCCCN1CCOCC1` — which class?
OUT: top end

IN: # bin lookup: classify `Cl.Cl.NC[C@H](CC1CCCCC1)NC(=O)c1cc(Br)c(-c2ccnc3[nH]ccc23)s1` by its %Inh
OUT: midrange

IN: Please let me know in which category the item `CC(C)Nc1cc(-c2ccc3c(N)n[nH]c3c2)nc(N)n1` belongs.
OUT: bottom end

IN: # bin lookup: classify `Cc1occc1-c1nc(N)c(OC[C@@H](N)Cc2c[nH]c3ccccc23)cc1-c1cc2c(C)n[nH]c2cn1` by its %Inh
OUT: midrange

IN: Which category does the recorded %Inh put `Nc1nc(Nc2ccccc2)cc(-c2ccc3c(N)n[nH]c3c2)n1` in?
OUT: bottom end

IN: Please let me know in which category the item `Cl.Oc1cc(-c2nc(-c3ccccc3)[nH]c2-c2ccncc2)ccc1Cl` belongs.
OUT: top end

IN: Sort into band: `Cc1cc(C(=O)Nc2ccc(Oc3ccc4nc(NC(=O)C5CC5)cn4n3)cc2)nn1-c1ccccc1`
OUT: top end

IN: Place this compound in its band: CN(C)CC(O)COc1ccc(Nc2nccc(-c3cnn4nc(N5CCOCC5)ccc34)n2)cc1 (stereo not shown)
OUT: top end
